Biological target: human SMS2 (Homo sapiens)
Sequence (Q8NHU3 whole entry): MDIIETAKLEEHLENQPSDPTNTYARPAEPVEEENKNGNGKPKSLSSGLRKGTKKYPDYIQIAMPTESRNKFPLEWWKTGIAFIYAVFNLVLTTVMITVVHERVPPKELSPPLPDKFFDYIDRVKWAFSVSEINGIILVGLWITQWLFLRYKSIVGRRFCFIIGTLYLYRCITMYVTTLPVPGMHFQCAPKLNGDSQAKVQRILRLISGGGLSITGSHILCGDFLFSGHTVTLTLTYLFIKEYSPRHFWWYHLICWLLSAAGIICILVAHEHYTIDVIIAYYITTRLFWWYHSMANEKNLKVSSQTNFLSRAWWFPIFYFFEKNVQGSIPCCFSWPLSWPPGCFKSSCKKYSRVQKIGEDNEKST
Test: purified SMS enzyme inhibitory assay in vitro
Type: biochemical
Conditions: read-out: SMS2 Inhibition @ 1 μmol/L (%)
property.measured: inhibition at 1 µM (%)
Note: unit % is implicit; provide only the numeric part.

Just so you know, measured inhibition at 1 µM for `O=C(Nc1ccnnc1)c1sccc1OCc1ccccc1` came out at -16

Just so you know, measured inhibition at 1 µM for CCCCCCCOc1ccccc1COc1ccsc1C(=O)Nc1cccnc1 [14k] came out at 91

Just so you know, measured inhibition at 1 µM for `O=C(Nc1cccnc1)c1scc(Br)c1OCc1ccccc1` came out at 42

Just so you know, measured inhibition at 1 µM for CCCCCOc1ccccc1COc1ccsc1C(=O)Nc1cccnc1 [14i] came out at 86

Just so you know, measured inhibition at 1 µM for `O=C(Nc1ccccc1)c1sccc1OCc1ccccc1` came out at 3

Just so you know, measured inhibition at 1 µM for CCCCCCCCCOc1ccccc1COc1ccsc1C(=O)Nc1cccnc1 [14m] came out at 91
